FYI, the data here is from PubChem BioAssay AID1963958.

System: MDA-MB-231 multicell spheroids, viability
MEASUREMENT_PROTOCOL: Anticancer human tumor MDA-MB-231 cell line growth inhibition [PI3K];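 also: spheroids exposed to agents for seven days before reading; percent of vehicle control luminescence with DMSO treated spheroids as 100%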
CONDITION_LABEL: second compound 1 µM; first compound 1 µM; hits give low values
This section presents compounds with their documented viability, T/C values.
Write the number in % without appending the unit.

>  <COMPOUND>
C#Cc1c(F)ccc2cc(O)cc(-c3ncc4c(N5CC6CCC(C5)N6)nc(OCC56CCCN5CC(F)C6)nc4c3F)c12 (stereo unspecified) + Cc1nc(NC(=O)N2CCCC2C(N)=O)sc1-c1ccnc(C(C)(C)C(F)(F)F)c1

>  <viability, T/C (%)>
55.2

$$$$
>  <COMPOUND>
CNC(=O)c1ccc(N2C(=S)N(c3ccc(C#N)c(C(F)(F)F)c3)C(=O)C2(C)C)cc1F + COc1c(OCCCN2CCOCC2)ccc2c3n(c(=NC(=O)c4cnc(N)nc4)nc12)CCN3

>  <viability, T/C (%)>
24.8

$$$$
>  <COMPOUND>
C=CC(=O)N1CCN(c2nc(=O)n(-c3c(C)ccnc3C(C)C)c3nc(-c4c(O)cccc4F)c(F)cc23)C(C)C1 (stereo unspecified) + Cc1nc(NC(=O)N2CCCC2C(N)=O)sc1-c1ccnc(C(C)(C)C(F)(F)F)c1

>  <viability, T/C (%)>
71.1

$$$$
>  <COMPOUND>
C#Cc1c(F)ccc2cc(O)cc(-c3ncc4c(N5CC6CCC(C5)N6)nc(OCC56CCCN5CC(F)C6)nc4c3F)c12 (stereo unspecified) + CC(Nc1ncnc2nc[nH]c12)c1cc2cccc(Cl)c2c(=O)n1-c1ccccc1

>  <viability, T/C (%)>
72.8

$$$$
>  <COMPOUND>
CC(Cn1ccc(-c2ccc(C#N)c(Cl)c2)n1)NC(=O)c1cc(C(C)O)[nH]n1 (stereo unspecified) + COc1c(OCCCN2CCOCC2)ccc2c3n(c(=NC(=O)c4cnc(N)nc4)nc12)CCN3

>  <viability, T/C (%)>
25.3

$$$$

Problem: Name the recorded viability, T/C of the compound listed here: CCN1CCN(Cc2ccc(Nc3ncc(F)c(-c4cc(F)c5nc(C)n(C(C)C)c5c4)n3)nc2)CC1 + CC(Nc1ncnc2nc[nH]c12)c1cc2cccc(Cl)c2c(=O)n1-c1ccccc1
Result: 49.6

Problem: Name the recorded viability, T/C of the compound listed here: CC(C)NCC(C(=O)N1CCN(c2ncnc3c2C(C)CC3O)CC1)c1ccc(Cl)cc1 (stereo unspecified) + CC(Nc1ncnc2nc[nH]c12)c1cc2cccc(Cl)c2c(=O)n1-c1ccccc1
Result: 65.9

Problem: Name the recorded viability, T/C of the compound listed here: CNC(=O)c1ccc(N2C(=S)N(c3ccc(C#N)c(C(F)(F)F)c3)C(=O)C2(C)C)cc1F + Cc1nc(NC(=O)N2CCCC2C(N)=O)sc1-c1ccnc(C(C)(C)C(F)(F)F)c1
Result: 65.9

Problem: Name the recorded viability, T/C of the compound listed here: C=CC(=O)N1CCN(c2nc(=O)n(-c3c(C)ccnc3C(C)C)c3nc(-c4c(O)cccc4F)c(F)cc23)C(C)C1 (stereo unspecified) + CC(Nc1ccc2c(c1)OCCn1cc(N3C(=O)OCC3C(F)F)nc1-2)C(N)=O
Result: 60.6

Problem: Name the recorded viability, T/C of the compound listed here: Cn1ncc(Cl)c1-c1cc(C(=O)NC(CN)Cc2cccc(F)c2)sc1Cl (stereo unspecified) + CC(Nc1ncnc2nc[nH]c12)c1cc2cccc(Cl)c2c(=O)n1-c1ccccc1
Result: 64

Problem: Name the recorded viability, T/C of the compound listed here: C=CC(=O)N1CCN(c2nc(=O)n(-c3c(C)ccnc3C(C)C)c3nc(-c4c(O)cccc4F)c(F)cc23)C(C)C1 (stereo unspecified) + CC(Nc1ncnc2nc[nH]c12)c1cc2cccc(Cl)c2c(=O)n1-c1ccccc1
Result: 106
